Every entry's value here was drawn from patent US20040253665A1.

Tested on: peptide-producing enzyme (Mono S fraction) from Empedobacter brevis strain FERM BP-8113
Assay: Enzyme substrate specificity (1)-(10), (13), (14)
Format: biochemical
Set-up: key: +: those peptides for which production was confirmed but which were unable to be quantified due to the absence of a standard; a trace amount
Settings: L-amino acid methyl ester hydrochloride 100 mM, 150 mM L-glutamine, pH 9.0, 25° C., 3 hours
Excerpt: Ester specificity was examined in the case of using L-amino acid ester for the carboxy component. […] The amounts of L-Ala-L-Gln produced in this reaction are shown in Table 4 (HCl represents hydrochloride in Table 4). […] (The “+” mark indicates those peptides for which production was confirmed but which were unable to be quantified due to the absence of a standard.) […] […] Substrate specificity was additionally assessed using the same enzyme fraction as that used in Example 5. […]
Residues, ends and D or L forms follow the SMILES beside them.
OBSERVABLE: Produced peptide (mM)

| COMPOUND | RECORDED_RESULT |
| --- | --- |
| NC(=O)CC[C@H](NC(=O)C[C@H](N)C(=O)O)C(=O)O [β-L-Asp-L-Gln] | tr |
| NCCCC[C@H](N)C(=O)N[C@@H](CCC(N)=O)C(=O)O [L-Lys-L-Gln] (H-Lys-Gln-OH) | + |
| NC(=O)CC[C@H](NC(=O)[C@@H](N)CS)C(=O)O [L-CySH-L-Gln] (H-Cys-Gln-OH) | + |
| NC(=O)CC[C@H](NC(=O)CC[C@H](N)C(=O)O)C(=O)O [γ-L-Glu-L-Gln] | + |
| NC(=O)CC[C@H](NC(=O)[C@@H](N)CCC(=O)O)C(=O)O [α-L-Glu-L-Gln] (H-Glu-Gln-OH) | + |

Your task in this section: give Produced peptide (mM) for each listed record.
1. CC(C)C[C@H](N)C(=O)N[C@@H](CCC(N)=O)C(=O)O [L-Leu-L-Gln] (H-Leu-Gln-OH)
2. NC(=O)CC[C@H](NC(=O)[C@@H](N)Cc1cnc[nH]1)C(=O)O [L-His-L-Gln] (H-His-Gln-OH)
3. NC(=O)CCC(NC(=O)C(N)Cc1c[nH]c2ccccc12)C(=O)O [L-Trp-L-Gln] (H-Trp-Gln-OH; configuration not given here)
4. NC(=O)CC[C@H](NC(=O)[C@@H](N)CC(N)=O)C(=O)O [L-Asn-L-Gln] (H-Asn-Gln-OH)
5. NC(=O)CC[C@H](NC(=O)[C@@H](N)CC(=O)O)C(=O)O [α-L-Asp-L-Gln] (H-Asp-Gln-OH)

Result:
1. +
2. +
3. +
4. +
5. tr

---

Tested on: enzyme (SP-Sepharose HP fraction) derived from Sphingobacterium sp. strain FERM BP-8124
Assay type: biochemical
Conditions: Table 15-3; carboxy component 100 mM, amine component 150 mM, 0.33 units enzyme, pH 9.0, 25° C., 1.5 hours
Residues, ends and D or L forms follow the SMILES beside them.
OBSERVABLE: Produced peptide (mM)
One number for each entry, in mM.

Here is how some molecules turned out for Produced peptide.
| MOLECULE | UNIT_ABBREV | Produced peptide |
| --- | --- | --- |
| CSCC[C@H](N)C(=O)N[C@@H](Cc1ccccc1)C(=O)O [L-Met-L-Phe] (H-Met-Phe-OH) | mM | 8.9 |
| N[C@@H](CO)C(=O)N[C@@H](CO)C(=O)O [L-Ser-L-Ser] (H-Ser-Ser-OH) | mM | 9.9 |
| NCC(=O)N[C@@H](Cc1ccccc1)C(=O)O [Gly-L-Phe] (H-Gly-Phe-OH) | mM | 20.0 |
| C[C@H](NC(=O)[C@@H](N)[C@@H](C)O)C(=O)O [L-Thr-L-Ala] (H-Thr-Ala-OH) | mM | 5.8 |
| C[C@@H](O)[C@H](N)C(=O)NCC(=O)O [L-Thr-Gly] (H-Thr-Gly-OH) | mM | 0.4 |

// next item, Produced peptide requested
Consider CC(C)[C@H](N)C(=O)N[C@@H](CO)C(=O)O [L-Val-L-Ser] (H-Val-Ser-OH) . Its measured Produced peptide is 31.9

---

System: peptide-producing enzyme (Mono S fraction) from Empedobacter brevis strain FERM BP-8113
Experiment: Enzyme substrate specificity (1)-(10), (13), (14)
Type: biochemical
Details: L-amino acid methyl ester hydrochloride 100 mM, 150 mM L-glutamine, pH 9.0, 25° C., 3 hours
Residues, ends and D or L forms follow the SMILES beside them.
Binarize Produced peptide at 10 mM; below is Y, at or above is N.

| COMPOUND | EXPERIMENTAL_TARGET | LABEL |
| --- | --- | --- |
| NC(=O)CC[C@H](NC(=O)[C@@H](N)CCC(N)=O)C(=O)O [L-Gln-L-Gln] (H-Gln-Gln-OH) | peptide-producing enzyme (Mono S fraction) from Empedobacter brevis strain FERM BP-8113 | Y |
| NC(=O)CC[C@H](NC(=O)[C@@H](N)Cc1ccc(O)cc1)C(=O)O [L-Tyr-L-Gln] (H-Tyr-Gln-OH) | peptide-producing enzyme (Mono S fraction) from Empedobacter brevis strain FERM BP-8113 | Y |
| NC(=O)CC[C@H](NC(=O)[C@@H](N)Cc1ccccc1)C(=O)O | peptide-producing enzyme (Mono S fraction) from Empedobacter brevis strain FERM BP-8113 | Y |

Q: Report whether reported Produced peptide is lower than 10 mM (strictly) for CSCC[C@H](N)C(=O)N[C@@H](CCC(N)=O)C(=O)O [L-Met-L-Gln] (H-Met-Gln-OH)
Result: N

Q: Is it true that Produced peptide reported for C[C@@H](O)[C@H](N)C(=O)N[C@@H](CCC(N)=O)C(=O)O [L-Thr-L-Gln] (H-Thr-Gln-OH) is less than 10 mM?
Result: N

Q: Below 10 mM on Produced peptide? Entry NC(=O)CC[C@H](NC(=O)[C@@H](N)CCCN=C(N)N)C(=O)O [L-Arg-L-Gln] (H-Arg-Gln-OH)
Result: Y

Q: Check if Produced peptide falls below 10 mM for NC(=O)CC[C@H](NC(=O)[C@@H]1CCCN1)C(=O)O [L-Pro-L-Gln] (H-Pro-Gln-OH) .
Result: Y

Q: Quick check: does NC(=O)CC[C@H](NC(=O)[C@@H](N)CO)C(=O)O [L-Ser-L-Gln] (H-Ser-Gln-OH) have Produced peptide under 10 mM?
Result: N

---

System: Empedobacter brevis strain FERM BP-8113 microbial cells
Assay: Production of peptide using microbial cells of Empedobacter brevis
Format: cell-based
Details: microbial cell suspension 100 g/L mixed 1:1 with 200 mM carboxy component and 400 mM amino acid, pH 9.0, 10 mM EDTA, 18° C., 2 hours
Residues, ends and D or L forms follow the SMILES beside them.
Answer each item with its documented Produced peptide.
Answers are plain numbers, in mM.

Solved cases (3 shown):
| COMPOUND | RECORDED_RESULT |
| --- | --- |
| CC(C)C[C@H](NC(=O)[C@H](C)N)C(=O)O [L-Ala-L-Leu] (H-Ala-Leu-OH) | 38.2 |
| N[C@@H](CO)C(=O)N[C@@H](CO)C(=O)O [L-Ser-L-Ser] (H-Ser-Ser-OH) | 29.0 |
| CC(C)C[C@H](NC(=O)[C@@H](N)[C@@H](C)O)C(=O)O [L-Thr-L-Leu] (H-Thr-Leu-OH) | 23.0 |

For CSCC[C@H](NC(=O)[C@@H](N)C(C)C)C(=O)O [L-Val-L-Met] (H-Val-Met-OH) the compound record lists Produced peptide as 10.5

---

Test system: peptide-producing enzyme (Mono S fraction) from Empedobacter brevis strain FERM BP-8113
Test: Enzyme substrate specificity (1)-(10), (13), (14)
Format: biochemical
Conditions: L-amino acid methyl ester hydrochloride 100 mM, 150 mM L-glutamine, pH 9.0, 25° C., 3 hours
Residues, ends and D or L forms follow the SMILES beside them.
OBSERVABLE: Produced peptide (mM)
Numbers only, in mM.

| COMPOUND | EXPERIMENTAL_TARGET | UNIT_ABBREV | RECORDED_RESULT |
| --- | --- | --- | --- |
| NCC(=O)N[C@@H](CCC(N)=O)C(=O)O [Gly-L-Gln] (H-Gly-Gln-OH) | peptide-producing enzyme (Mono S fraction) from Empedobacter brevis strain FERM BP-8113 | mM | 54.7 |
| CC[C@H](C)[C@H](N)C(=O)N[C@@H](CCC(N)=O)C(=O)O [L-Ile-L-Gln] (H-Ile-Gln-OH) | peptide-producing enzyme (Mono S fraction) from Empedobacter brevis strain FERM BP-8113 | mM | 8.4 |
| C[C@H](N)C(=O)N[C@@H](CCC(N)=O)C(=O)O [L-Ala-L-Gln, L-alanyl-L-glutamine] (H-Ala-Gln-OH) | peptide-producing enzyme (Mono S fraction) from Empedobacter brevis strain FERM BP-8113 | mM | 74.6 |

Note: attention shifts to another entry.
// CC(C)[C@H](N)C(=O)N[C@@H](CCC(N)=O)C(=O)O [L-Val-L-Gln] (H-Val-Gln-OH) : Produced peptide value = 15.4
